Biological target: T1, GIP receptor (UniProt P48546 22-466, limits assumed)
T1 sequence (looked up): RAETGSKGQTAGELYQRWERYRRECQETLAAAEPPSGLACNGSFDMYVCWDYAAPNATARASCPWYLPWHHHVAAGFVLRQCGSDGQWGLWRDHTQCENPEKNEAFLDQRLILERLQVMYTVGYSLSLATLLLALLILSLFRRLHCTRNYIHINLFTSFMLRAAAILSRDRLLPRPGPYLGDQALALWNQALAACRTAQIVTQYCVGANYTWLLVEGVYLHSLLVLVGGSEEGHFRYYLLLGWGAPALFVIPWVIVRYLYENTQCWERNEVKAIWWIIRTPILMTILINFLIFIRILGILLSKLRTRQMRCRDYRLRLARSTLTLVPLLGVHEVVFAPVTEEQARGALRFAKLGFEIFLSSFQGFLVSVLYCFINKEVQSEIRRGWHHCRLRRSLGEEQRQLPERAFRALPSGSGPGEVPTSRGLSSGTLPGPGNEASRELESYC
Assay: cell-based or functional assay
Non-standard residues stand in square brackets, D forms with d. No end group written: not given here. APC = 3-aminopyrrolidine-4-carboxylic acid (cyclic beta amino acid); ACPC = 2-aminocyclopentanecarboxylic acid (cyclic beta amino acid); Aib = CC(C)(N)C(=O)O
Quick list: cAMP agonist: Curve Bottom per entry.
quantity.kind: cAMP agonist: Curve Bottom (%)

binder	quantity.kind	assay.result
Y[Aib]EGTFTSDYSIYLDK[ACPC]AA[Aib][ACPC]FV[APC]WLL[ACPC]G [2010]	cAMP agonist: Curve Bottom	-0.3
Y[Aib]EGTFTSDYSIYLD[APC]QA[ACPC][Aib]EF[ACPC]NW[ACPC]LAG [2008]	cAMP agonist: Curve Bottom	-0.6
YXEGTFTSDYSXYLXKQAXXEXVNWXLAX (B = alpha-aminoisobutyric acid (Aib) at positions 2 and 20; alpha-to-beta3 amino acid replacement(s) at the bold and underlined position(s) of the printed sequence, which this text does not show) [2004]	cAMP agonist: Curve Bottom	-0.8
YXEGTFTSDYSIYXDKXAAXXFVXWLLXG (B = alpha-aminoisobutyric acid (Aib) at positions 2 and 20; alpha-to-beta3 amino acid replacement(s) at the bold and underlined position(s) of the printed sequence, which this text does not show) [2005]	cAMP agonist: Curve Bottom	-2.6

Data provenance is patent US9790262B2.
